- ASSAY NOTES: Elimination half life in febrile neutropenic patient with hematological malignancies at 500 mg administered as 30 mins infusion every 6 hrs
- Assay type: ADME, organism-based
- CONDITION DETAILS: human, in vivo, iv
MEASURED PROPERTY: half-life
Reply with the number and its unit after it.

Query block: Look up and state reported half-life for C[C@@H](O)[C@H]1C(=O)N2C(C(=O)O)=C(SCCNC=N)C[C@H]12 [IMIPENEM ANHYDROUS]
Result block: 1.43 h

###

- ASSAY NOTES: Renal clearance in febrile neutropenic patient with hematological malignancies at 500 mg administered as 30 mins infusion every 6 hrs
- Assay type: ADME, organism-based, Kidney
- CONDITION DETAILS: human, in vivo, iv, read-out: CL_renal (converted)
MEASURED PROPERTY: CL renal

Query block: Kindly indicate its recorded CL renal. Item: C[C@@H](O)[C@H]1C(=O)N2C(C(=O)O)=C(SCCNC=N)C[C@H]12 [IMIPENEM ANHYDROUS]
Result block: 79.8 mL/min
